B1: LINE1-full (parent)
chain: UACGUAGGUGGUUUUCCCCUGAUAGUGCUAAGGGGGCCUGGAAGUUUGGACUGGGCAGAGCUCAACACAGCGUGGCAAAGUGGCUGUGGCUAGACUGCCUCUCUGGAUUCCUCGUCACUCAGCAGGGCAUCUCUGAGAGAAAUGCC

# Variants of: B1
# ASSAY INFO: self-cleavage, relative activity (ratio to wild type); higher = more cleavage; in vitro, sequencing; the parent is a self-cleaving ribozyme
Decision: self-cleavage compared against 0.06; not below it gives yes, below it gives no.

MUTATION KEY | GROUP
A57U C61U | no
A65G A69C | no
A67G C111A | yes
G88U U115A | yes
G44A U47C | yes
U20G U115C | yes
U12G U52A | yes
U115G A138G | yes
G40A G88A | no
U23C A129G | no
A67G U130C | yes
C16U U112C | yes
U1A U109C | yes
C103U U134C | yes
C17A A79U | yes
G75C U109C | yes
A6U A117U | yes
G97A U109C | no
A67U A69U | no
A59G U108C | yes
C37A G40U | yes

All values here come from the RNAGym collection of RNA variant scans (doi:10.7554/elife.90254).
